assayName: qHTS assay to identify small molecules that stimulate interleukin-8 (IL-8) secretion (AID 651758); note: 0% is about no effect
runParameters: HTRF ratio (665/615); series mostly up to 92.2 µM
Records with an inconclusive call do not appear. Calls of active or inactive are those of the source. Calls come from the whole dose curve; as a rule, active = well fitted activation curve with a large enough effect in the signal ratio; inconclusive = small, poorly fitted or top-dose-only effect, or effect the other way, or a change in a side signal; inactive = flat fitted curve, though single readings scatter; the % refers to the signal ratio.
Write down one outcome, taken from Yes (active), No (inactive)

molecule | classAssignment
CCCCOCCO | No

Recorded test call requested for c1ccc2scnc2c1
No

----------
testTarget: Rap guanine nucleotide exchange factor 3 (Homo sapiens)
assayName: Counterscreen qHTS for antagonist of cAMP-regulated guanine nucleotide exchange factor 3 (EPAC1) (AID 1645888);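 note: fluorescence loss as bound BODIPY-GDP is released from Rap1B; % of control where 0% means no effect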
runParameters: Rap1B-BODIPY-GDP nucleotide exchange, fluorescence; series mostly up to 154 µM
Records with an inconclusive call do not appear. Activity calls are given as the source filed them. Calls follow the shape of the dose curve; as a rule, active = well fitted inhibition curve with a large enough effect; inconclusive = small, poorly fitted or top-dose-only effect; inactive = no such curve, though single readings can be large or run the other way.
reportedMetric: activity change, negative = inhibition

compound | activity change, negative = inhibition
COc1ccc2nc(N3C(=O)C(O)=C(C(=O)c4ccco4)C3c3ccc(C)o3)sc2c1 (centres undefined) | inactive
Cc1[nH][nH]c(=O)c1C(c1ccc(-c2ccc(Cl)c(C(=O)O)c2)o1)c1c(C)[nH][nH]c1=O | 34.9% [at 30.8 µM] (inactive)
Cc1[nH]n(-c2ccccc2)c(=O)c1C(c1ccc(C(=O)O)cc1)c1c(C)[nH]n(-c2ccccc2)c1=O | inactive
Cc1cc(=O)oc2cc(NC(=O)C(C)Oc3ccccc3)ccc12 (centres undefined) | inactive
O=C(Cn1cnc2c(nnn2Cc2ccccc2)c1=O)N1CCN(c2ccccc2)CC1 | inactive
Cc1ccc2nc(/C(C#N)=C\c3ccc(N4CCOCC4)o3)[nH]c2c1 | 15.8% [at 30.8 µM] (inactive)

// query activity change, negative = inhibition value for entry CCCc1ccc2oc(C(=O)NCCc3nc(C(=O)OCC)cs3)c(C)c2c1
-14.7% [at 30.8 µM] (inactive)

// query activity change, negative = inhibition value for entry COc1ccc(C(=O)N/N=C/c2ccc3cccc(OCc4ccccc4)c3n2)cc1
inactive

// query activity change, negative = inhibition value for entry COc1ccc(C(=O)c2oc3ccccc3c2NC(=O)c2cc(=O)c3ccc(C)cc3o2)cc1Cl
inactive

----------
testTarget: Nicotinamide N-methyltransferase (Homo sapiens) (UniProt P40261)
Sequence (P40261 whole entry, looked up): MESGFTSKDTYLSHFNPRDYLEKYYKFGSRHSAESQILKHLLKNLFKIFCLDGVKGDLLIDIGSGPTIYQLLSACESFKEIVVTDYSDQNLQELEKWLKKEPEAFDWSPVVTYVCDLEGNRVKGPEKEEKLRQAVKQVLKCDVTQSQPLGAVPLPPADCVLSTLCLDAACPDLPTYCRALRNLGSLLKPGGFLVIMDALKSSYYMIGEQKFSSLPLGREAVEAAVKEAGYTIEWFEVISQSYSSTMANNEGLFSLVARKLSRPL
assayName: Confirmatory Screen for Target Class Profiling of Small Molecule Inhibitors of Methyltransferases (AID 1745852)
runParameters: MTase-Glo luminescence, SAH detection, recombinant enzyme; measured here: NNMT max response; stronger effect = lower value
reportedMetric: activity (%)
Please respond with the number in % and leave the unit unwritten.

Examples from the recorded data:
smilesStructure | readingUnit | activity
Cn1c(=O)n(C)c2cc(S(=O)(=O)Nc3ccc(-c4nnc(-c5ccccc5)o4)c(Cl)c3)ccc21 | % | -40.4
CCN(CC)CCCNC(=O)CCc1nnc2n(CCc3ccccc3)c(=O)c3ccccc3n12 | % | -11.7
O=C(NCc1ccc2c(c1)OCO2)c1sc(=S)n2c1[nH]c(=O)c1ccccc12 | % | -20.7

Could you now look at the following compound, please?
Any idea what activity came out for COc1cccc(Nc2ccnc(-c3nnc(C)n3C3CCCCC3)c2)c1 on Nicotinamide N-methyltransferase (Homo sapiens) (UniProt P40261)?
-22.9

----------
assayName: MultiTox-Fluor Cytotoxicity Assay - LYMP1-001 - Dead Cells (AID 946);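 note: cells exposed to compound for 16 h; 0% = DMSO and 100% = tetraoctylammonium bromide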
runParameters: LYMP1-001 lymphoblastoid cells, dead-cell protease fluorescence; series mostly up to 92.2 µM
Inconclusive results are not listed. The source made the active and inactive calls. Calls come from the whole dose curve; as a rule, active = well fitted cell-killing curve with a large enough effect; inconclusive = small, poorly fitted or top-dose-only effect, or effect the other way; inactive = flat fitted curve, though single readings scatter.
Write down one outcome, taken from active, inactive

Recorded test call requested for O=NO
inactive

Recorded test call requested for c1ccc2c(c1)c1cccc3ccc4cccc2c4c31
inactive
